tested on: Wolbachia pipientis; experiment: Anti-Wolbachia Cell-Based Screen; type: functional; parameters: scale not given: in the data most compounds retested in dose-response had high values; details: 5 µM
Among all 48,000 compounds or so, about 13,000 (27%) showed an effect of 50% or more. Some of the results follow.
Values of Percent Effect strictly less than 10% map to satisfied, and values of at least 10% map to not satisfied.

# Molecule, Target Entity, Assigned Category
rows = [
    ("CCS(=O)(=O)N1CC[C@@H]2[C@@H](CCC(=O)N2CCc2ccccc2)C1", "Wolbachia pipientis", "satisfied"),
    ("CS(=O)(=O)N1CCC2(CCCN(CCCc3ccccc3)C2=O)C1 (stereo unspecified)", "Wolbachia pipientis", "satisfied"),
    ("N#Cc1cccc(NC2CC(=O)N(CCCc3ccccc3)C2)n1 (stereo unspecified)", "Wolbachia pipientis", "satisfied"),
]

API: query returns whether the molecule falls strictly under 10% in Percent Effect. Query: CC(NCc1ccccn1)c1cc2c(cc1Br)OCCO2 (stereo unspecified) satisfied

API: query returns whether the molecule falls strictly under 10% in Percent Effect. Query: CNS(=O)(=O)CC(=O)N(Cc1ccccc1)c1ccc(C)cc1 satisfied

API: query returns whether the molecule falls strictly under 10% in Percent Effect. Query: CCc1c(C)nc2ccccc2c1N1CCC(NC(C)=O)CC1 not satisfied

----------
system: Wolbachia pipientis; experiment: Anti-Wolbachia Cell-Based Screen; assay type: functional; design: scale not given: in the data most compounds retested in dose-response had high values; details: 5 µM
In all, about 48,000 compounds went through this assay and about 13,000 (27%) showed an effect of 50% or more. Some of the results follow.
Endpoint Name: Percent Effect
Returns: string containing the number followed by the unit.

# Compound, Target Entity, Endpoint Name, Result
measured = [
    ("CCn1nc(C)cc1C(=O)N1C[C@@H](CN(C)C)[C@@H](CO)C1", "Wolbachia pipientis", "Percent Effect", "107.3%"),
    ("Nc1cc(-c2c[nH]nc2C2CCCN2CCCc2ccccc2)ccn1 (stereo not drawn)", "Wolbachia pipientis", "Percent Effect", "114.8%"),
]

Continue with the next compound.
For the compound CC(C)N(CC(N)=O)Cc1csc(COc2ccc(F)cc2)n1 , report Percent Effect. -2.254%

----------
test system: Wolbachia pipientis; experiment: Anti-Wolbachia Cell-Based Screen; assay type: functional; parameters: scale not given: in the data most compounds retested in dose-response had high values; conditions: 5 µM
Out of some 48,000 compounds screened, about 13,000 (27%) showed an effect of 50% or more. This is one part of the list.
Endpoint Name: Percent Effect (%)
Return type: number; implicit unit %.

For orientation, consider the following solved cases.
# Compound, Readout Units, Percent Effect
data = [
    ("CCNc1ncc(C(=O)NCCc2csc(-c3ncccn3)n2)cn1", "%", -22.07),
    ("Cc1ccc(C2CCCCCN2CCNS(C)(=O)=O)o1 (stereo unspecified)", "%", -18.53),
    ("Cc1ccsc1[C@@H]1CCN(C(=O)CCc2cc(O)no2)C[C@H]1O", "%", 2.962),
    ("Cc1cc2c(cc1C)C(NCc1nnc3n1CCCCC3)CCCO2 (stereo unspecified)", "%", 3.518),
    ("c1coc(-c2nc(CN3CCn4c(nnc4C4CC4)C3)cs2)c1", "%", 21.52),
]

Continue with the next compound.
Identify measured Percent Effect obtained with Wolbachia pipientis for CCc1c(O)nc(SC(C)CC)n(-c2ccccc2)c1=O (stereo unspecified) . -9.121
